- assay-info: blockers of RIG-like receptor reporter activation – cell-based, Sendai virus stimulus, luciferase, 10K MLSCN set, TLR/RLR signaling modifier project, primary screen (AID 602276);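 further: firefly luciferase from ISG56 promoter only with Renilla not read in this screen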
- cond: HEK293 RL24 IRF3 luciferase reporter, at 10 µM, stronger effect = higher value
inhibition vs 10%: at or above is fulfilled, below is not fulfilled.

{"given-smiles": "CN(C)S(=O)(=O)N1CCN(C(=O)N(c2ccccc2)c2ccccc2)CC1", "label-value": "not fulfilled"}
{"given-smiles": "COC(=O)c1ccnc(/C=N/O)c1", "label-value": "fulfilled"}
{"given-smiles": "Cc1cc2c(cc(C(=O)OCC(=O)NCc3cccs3)n2C(C)C)o1", "label-value": "fulfilled"}
{"given-smiles": "COc1ccc(-n2nnc3c(=O)n(C/C=C/c4ccccc4)cnc32)cc1", "label-value": "fulfilled"}
{"given-smiles": "CCN(CC)c1ccc(NC(=O)c2cncc(Br)c2)cc1", "label-value": "not fulfilled"}
{"given-smiles": "CCCCOc1ccc(-c2ncc(C(=O)OCC)c(N)n2)cc1", "label-value": "not fulfilled"}
{"given-smiles": "O=C(CCCSc1nc2ccccc2s1)NC1=NCCS1", "label-value": "fulfilled"}
{"given-smiles": "Cc1ccc(-c2nn[nH]n2)cc1", "label-value": "not fulfilled"}
{"given-smiles": "O=C(CSc1nnc(-c2cnccn2)n1Cc1ccco1)c1ccc(Cl)cc1", "label-value": "not fulfilled"}
